# Test system: M. tuberculosis H37Rv growth inhibition, glycerol-free medium
# test: confirmation, H37Rv, purified and synthesized compounds, set 4 (AID 504860)
parameter: IC90

{"columns": ["molecule", "IC90"],
 "data": [
  ["COC(=O)C(C)Oc1ccc(Cc2ncc(C(F)(F)F)cc2Cl)cc1 (centres undefined)", "5.63 µM"],
  ["O=C(CSc1nc2c(c(=O)[nH]1)CCCC2)NC1CCCCC1", "< 0.01 µM"],
  ["Cc1cc(C)n2nc(N)c(N=Nc3ccccc3)c2n1", "6.75 µM"],
  ["CCOC1OC(=O)C(Cl)=C1Nc1ccccc1C (centres undefined)", "9.47 µM"],
  ["c1ccc(/N=C2\\N=C(Nc3ccccn3)c3ccccc32)nc1", "2.46 µM"],
  ["CNC(=O)CSc1nc2ccccc2c(=O)[nH]1", "99.1 µM"]
]}

Item Cc1[nH]c2ccccc2c1C(=O)COC(=O)c1ccc([N+](=O)[O-])s1 with M. tuberculosis H37Rv growth inhibition, glycerol-free medium - IC90?
5.21 µM

Item CC[N+](C)(CC)CCCCOc1ccc2c(c1)C(=O)c1cc(OCCCC[N+](C)(CC)CC)ccc1-2 with M. tuberculosis H37Rv growth inhibition, glycerol-free medium - IC90?
3.06 µM

Item CCOc1ccc(-c2cc(C)[n+](CCc3ccc(OC)c(OC)c3)c(-c3ccc(OCC)cc3)c2)cc1 with M. tuberculosis H37Rv growth inhibition, glycerol-free medium - IC90?
1.63 µM

Item Cc1nc(SCC(=O)NC2CCCC2)[nH]c(=O)c1C with M. tuberculosis H37Rv growth inhibition, glycerol-free medium - IC90?
15.6 µM

Item Cc1nc(SCC(=O)NCCC(C)C)[nH]c(=O)c1C with M. tuberculosis H37Rv growth inhibition, glycerol-free medium - IC90?
13.3 µM

Item Cc1cccc(-c2oc3ccc(-c4ccc5c(c4)OCO5)cc3c2C#Cc2cncn2C)c1 with M. tuberculosis H37Rv growth inhibition, glycerol-free medium - IC90?
3.08 µM

Item Cc1ccc(NC(=O)COC(=O)CCc2c[nH]c3ccccc23)cc1[N+](=O)[O-] with M. tuberculosis H37Rv growth inhibition, glycerol-free medium - IC90?
7.41 µM

###

# test: confirmation, H37Rv, purified and synthesized compounds, set 4 (AID 504860)
# conditions: M. tuberculosis H37Rv growth inhibition, glycerol-free medium; at 100 µM (top of the series)
parameter: inhibition (%)
Reply numerically in %, unit not repeated.

Examples with answers:
{"columns": ["molecule", "readoutNumber"],
 "data": [
  ["COc1cccc(NC(=O)CSc2nc3c(c(=O)[nH]2)CCC3)c1", -4.12],
  ["O=C(CSc1nccc(=O)[nH]1)NC1CCCCC1", 7.67],
  ["Cc1cnc(SCC(=O)NC2CCCCC2)[nH]c1=O", 3.92]
]}

Please look up its inhibition: O=c1[nH]c(SCc2ccccc2Cl)nc2c1CCCC2
9.5

Please look up its inhibition: CC(Sc1nc2ccccc2c(=O)[nH]1)C(=O)NC1CCCCC1 (centres undefined)
6.58

Please look up its inhibition: O=C(CSc1ncccn1)NC1CCCCC1
0.1

Please look up its inhibition: CCSc1nc2ccccc2c(=O)[nH]1
10.8

Please look up its inhibition: COC(=O)c1ccc(CNc2c(N3CCCC3)c(=O)c2=O)cc1
4.83

Provenance of the data: PubChem BioAssay AID504860
